test system: ADP-stimulated platelets; experiment: ADP-stimulated platelet aggregation assay (gel-filtered human platelets); type: cell-based; details: inhibition of ADP-stimulated platelet aggregation by 50% relative to control; gel-filtered human platelets 2×10^8 per ml, fibrinogen 100 ug/ml, Ca^2+ 1 mM, 10 mM ADP, 37° C.

item-smiles: C[C@H](CC(=O)O)NC(=O)CN1CCC[C@@H](CCC2CCNCC2)C1=O
IC50, µM: 100
